Tested on: HCT-116
Assay: Antiproliferative activity against HCT116 (human colon carcinoma) cell line.
Assay type: functional, cell-based
pIC50: −log10 of the molar value.
Measured Endpoint: pIC50

>>> quantitative_readout("O=C1NC(=O)c2c1c1c3ccccc3ccc1c1c2c2cccc3c2n1CCC3CO (stereo not drawn)")
5.90
>>> quantitative_readout("O=C1NC(=O)c2c1c1c3ccc(F)cc3[nH]c1c1c2c2cccc3c2n1C(CO)CC3 (stereo not drawn)")
6.09
>>> quantitative_readout("O=C1NC(=O)c2c1c1c3ccccc3ccc1c1c2c2cccc3c2n1CC(CO)C3 (stereo not drawn)")
6.03
